Molecular target: Proteasome subunit beta type-10 (Homo sapiens)
Sequence (whole entry): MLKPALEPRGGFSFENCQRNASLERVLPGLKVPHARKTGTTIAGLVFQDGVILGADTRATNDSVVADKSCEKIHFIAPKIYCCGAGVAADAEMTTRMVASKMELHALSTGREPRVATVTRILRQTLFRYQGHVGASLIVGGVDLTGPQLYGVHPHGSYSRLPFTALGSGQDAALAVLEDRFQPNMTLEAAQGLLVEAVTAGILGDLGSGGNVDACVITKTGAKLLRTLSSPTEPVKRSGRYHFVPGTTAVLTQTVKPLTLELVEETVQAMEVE
Test: Inhibition of human immunoproteasome beta 2i subunit at 10 uM using Boc-LRR-AMC as substrate preincubated for 30 mins followed by substrate addition measured for 120 mins by fluorescence based assay
Calls of active or inactive are those of the source. The rule behind the calls is not given here.
measure: inhibition

The cases that follow already have their inhibition on record.
Cc1c(-c2nsc(=O)o2)c(=O)oc2cc3occ(-c4ccc(F)cc4)c3cc12 inactive
Cc1c(-c2nsc(=O)o2)c(=O)oc2cc3occ(C4CCC4)c3cc12 inactive
COc1cccc(-c2coc3cc4oc(=O)c(-c5nsc(=O)o5)c(C)c4cc23)c1 inactive
Cc1c(-c2nsc(=O)o2)c(=O)oc2cc3occ(-c4ccc(Br)cc4)c3cc12 inactive
Cc1c(-c2nsc(=O)o2)c(=O)oc2cc3occ(-c4cccs4)c3cc12 inactive

(Q) Need inhibition, item `Cc1c(-c2nsc(=O)o2)c(=O)oc2cc3occ(C4CCCC4)c3cc12`
(A) inactive

(Q) Also `Cc1c(-c2nsc(=O)o2)c(=O)oc2cc3occ(C4CCCCC4)c3cc12` , if possible.
(A) inactive
